- target-of-assay: MERTK (UniProt Q12866)
- Sequence (Q12866 whole entry, looked up): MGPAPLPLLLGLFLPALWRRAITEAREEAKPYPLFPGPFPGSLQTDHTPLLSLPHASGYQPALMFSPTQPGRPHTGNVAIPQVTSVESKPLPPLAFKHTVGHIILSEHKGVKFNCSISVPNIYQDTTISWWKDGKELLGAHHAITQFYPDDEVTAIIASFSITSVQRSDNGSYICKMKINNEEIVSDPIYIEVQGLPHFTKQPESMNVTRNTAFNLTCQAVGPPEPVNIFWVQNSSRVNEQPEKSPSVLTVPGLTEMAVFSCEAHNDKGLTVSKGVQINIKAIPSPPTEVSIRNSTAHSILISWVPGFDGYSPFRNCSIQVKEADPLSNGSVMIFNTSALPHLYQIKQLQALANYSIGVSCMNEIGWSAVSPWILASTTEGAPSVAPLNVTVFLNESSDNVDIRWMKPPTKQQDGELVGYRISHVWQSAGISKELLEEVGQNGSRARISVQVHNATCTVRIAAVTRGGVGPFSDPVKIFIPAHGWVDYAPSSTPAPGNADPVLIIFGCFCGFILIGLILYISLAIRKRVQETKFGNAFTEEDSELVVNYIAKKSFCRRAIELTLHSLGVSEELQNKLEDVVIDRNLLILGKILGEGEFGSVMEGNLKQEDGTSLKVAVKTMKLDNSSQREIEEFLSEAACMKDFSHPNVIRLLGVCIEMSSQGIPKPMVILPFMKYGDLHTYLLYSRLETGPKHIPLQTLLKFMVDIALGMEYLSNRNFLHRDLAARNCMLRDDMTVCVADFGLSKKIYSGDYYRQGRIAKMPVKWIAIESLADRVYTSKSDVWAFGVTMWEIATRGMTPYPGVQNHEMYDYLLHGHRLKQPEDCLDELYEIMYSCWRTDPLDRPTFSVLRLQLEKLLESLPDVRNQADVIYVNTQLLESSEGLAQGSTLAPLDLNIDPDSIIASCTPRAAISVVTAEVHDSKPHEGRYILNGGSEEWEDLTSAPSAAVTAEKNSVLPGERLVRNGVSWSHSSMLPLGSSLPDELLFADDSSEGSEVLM
- test-details: phosphorylation enrichment, bacterial display (enrichment ratio); higher = better substrate or ligand; peptides without Tyr show the background;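 note: 11-residue human phosphosite peptides and single-mutation variants displayed on the E. coli surface, counted by deep sequencing, each peptide's frequency after selection divided by its frequency in the unselected input library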;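 note: frequency after pTyr selection over input frequency; kinase dosed for 20-30% of maximal phosphorylation in three min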
Each entry gets 0 (no) if its phosphorylation enrichment stays under 0.5, and 1 (yes) if its phosphorylation enrichment is 0.5 or above.

- seq: "MKSIKYMDKEI [CCDC60_Y41]"
  class: "0 (no)"
- seq: "GFVEDYRPPFF [ACVRL1_Y421_I417F_YF]"
  class: "0 (no)"
- seq: "QDEHGYISWCF [HSPB1_Y133_R136W]"
  class: "1 (yes)"
- seq: "TSESSYFKSLN [NGEF_Y288_A286S_YF]"
  class: "0 (no)"
- seq: "TFSPPYYHRNC [HGD_Y333_R330S]"
  class: "1 (yes)"
- seq: "ESLRRYLENGK [HLA-B_Y195_W191S]"
  class: "0 (no)"
- seq: "EYKDAYKFAAD [BRDT_Y335]"
  class: "0 (no)"
- seq: "GENTMYAQVFN [LY9_Y603]"
  class: "1 (yes)"
- seq: "AGLEDYDRLRP [RAC3_Y64_Q61L]"
  class: "0 (no)"
- seq: "DYYDLYGGKKF [PTPN11_Y66_E69K]"
  class: "1 (yes)"
- seq: "MHYSNYVSKGS [PDGFRA_Y849_D846Y]"
  class: "1 (yes)"
- seq: "HNQDGYSFPSR [LDLR_Y845_YF]"
  class: "1 (yes)"
- seq: "LKRIAYFLCLL [LGI1_Y21]"
  class: "0 (no)"
- seq: "FQGRRYDCDCD [CRYGS_Y21]"
  class: "1 (yes)"
- seq: "FADIAYSFRHG [PAH_Y166_N167S_YF]"
  class: "0 (no)"
- seq: "KPPPTYESEEE [BRD4_Y599]"
  class: "1 (yes)"
- seq: "GLRFGYGGLGG [KRTAP20-2_Y15_V17G_YF]"
  class: "0 (no)"
- seq: "ADRNHYRRFPR [YBX1_Y145_YF]"
  class: "1 (yes)"
- seq: "TACNPYKPPGP"
  class: "0 (no)"
- seq: "YRDALYKFIVD [PHEX_Y250_M253I]"
  class: "1 (yes)"
- seq: "VDASFCGGRGV [ANTXR2_Y381_Y381C_YF]"
  class: "0 (no)"
- seq: "KVQVSYKGETK [HSPA1A_Y107]"
  class: "0 (no)"
- seq: "QPSPSYDSSGG [TCF12_Y70_R74G]"
  class: "0 (no)"
- seq: "TLKDVCDDGKY [RPS6KA3_Y483_Y483C]"
  class: "0 (no)"
- seq: "LPENPYHSRPR [NDUFA8_Y142]"
  class: "0 (no)"
- seq: "HEKFLYFLPAS [DYNC2H1_Y346]"
  class: "1 (yes)"

###

- target-of-assay: EPHB1 (UniProt P54762)
- Sequence (P54762 whole entry, looked up): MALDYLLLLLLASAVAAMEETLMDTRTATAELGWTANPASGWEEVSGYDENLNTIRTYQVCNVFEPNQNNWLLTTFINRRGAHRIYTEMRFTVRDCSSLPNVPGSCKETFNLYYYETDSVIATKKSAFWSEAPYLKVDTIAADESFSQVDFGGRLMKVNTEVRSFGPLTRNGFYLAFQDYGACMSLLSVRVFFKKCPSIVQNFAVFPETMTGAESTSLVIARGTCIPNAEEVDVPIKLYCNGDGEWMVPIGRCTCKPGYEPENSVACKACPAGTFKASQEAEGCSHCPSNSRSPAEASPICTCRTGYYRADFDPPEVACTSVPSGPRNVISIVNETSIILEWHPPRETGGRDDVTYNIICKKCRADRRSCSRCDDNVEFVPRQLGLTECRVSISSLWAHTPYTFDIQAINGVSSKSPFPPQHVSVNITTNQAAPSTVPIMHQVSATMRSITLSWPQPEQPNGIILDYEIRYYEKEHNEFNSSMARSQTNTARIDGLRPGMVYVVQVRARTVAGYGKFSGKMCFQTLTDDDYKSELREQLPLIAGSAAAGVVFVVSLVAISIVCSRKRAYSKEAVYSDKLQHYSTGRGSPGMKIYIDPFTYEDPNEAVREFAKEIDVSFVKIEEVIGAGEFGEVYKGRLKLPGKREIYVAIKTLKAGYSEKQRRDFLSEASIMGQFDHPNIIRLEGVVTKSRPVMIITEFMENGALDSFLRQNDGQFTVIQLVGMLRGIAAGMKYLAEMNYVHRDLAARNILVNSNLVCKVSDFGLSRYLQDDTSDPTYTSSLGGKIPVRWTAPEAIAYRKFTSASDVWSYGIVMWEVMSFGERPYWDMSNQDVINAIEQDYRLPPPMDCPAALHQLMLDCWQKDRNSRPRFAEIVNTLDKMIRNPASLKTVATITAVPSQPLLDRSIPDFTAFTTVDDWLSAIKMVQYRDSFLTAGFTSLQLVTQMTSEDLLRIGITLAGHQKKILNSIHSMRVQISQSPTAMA
- test-details: phosphorylation enrichment, bacterial display (enrichment ratio); higher = better substrate or ligand; peptides without Tyr show the background
Each entry gets 0 (no) if its phosphorylation enrichment stays under 0.5, and 1 (yes) if its phosphorylation enrichment is 0.5 or above.

- seq: "MLEAPYVDRNS [F10_Y384_V382A]"
  class: "0 (no)"
- seq: "VHFLVYHHHHH [CACNA1H_Y519_H516Y_YF]"
  class: "1 (yes)"
- seq: "LKKKQYTSIHH [APP_Y728]"
  class: "1 (yes)"
- seq: "LEQGEYALRSH [HADHB_Y244_D242G]"
  class: "1 (yes)"
- seq: "SLDLSYFTTSS [EMD_Y181_P183T_YF]"
  class: "0 (no)"
- seq: "IHFPPYTDWNQ [ALDH3B2_Y365_YF]"
  class: "1 (yes)"

###

- System: Fer (mouse)
- test-details: phosphorylation enrichment, bacterial display (enrichment ratio); higher = better substrate or ligand; peptides without Tyr show the background
Consider the following sequences and their measured phosphorylation enrichment readings.
measure-name: phosphorylation enrichment

- seq: "FENGEYIVRQG [PRKG1_Y247_I249V_YF]"
  measured-number: 0.523
- seq: "TVHPGYGFLSE [PCCA_Y143_A138T]"
  measured-number: 0.425
- seq: "LICRRYLVMQR [IL3RA_Y328_V323L]"
  measured-number: 0.956
- seq: "RDLTDYLMKIL [ACTA1_Y190]"
  measured-number: 0.581
- seq: "NPQKSCFIRLY [WAS_Y83_Y83C]"
  measured-number: 0.481
- seq: "RKGGSYSQAAS [HLA-A_Y344_T345S]"
  measured-number: 0.294
- seq: "TWNPKYTLRSH [STRN3_Y474]"
  measured-number: 0.378
- seq: "TMKSRYMELFD [BBS2_Y644_YF]"
  measured-number: 0.382
- seq: "NTGDFCDLFGG [PTPN11_Y63_Y63C_YF]"
  measured-number: 0.487
- seq: "FMCKVYSDPQP [FGFR1_Y280]"
  measured-number: 0.591
- seq: "EQLGEYKFQNA [ALB_Y425]"
  measured-number: 0.351
- seq: "EIVFVYVKKRS [DNAI2_Y7_YF]"
  measured-number: 0.593
- seq: "DNEFAYLKAII [HNF4A_Y288_YF]"
  measured-number: 0.381
- seq: "ENPLDYGSAWA [AR_Y395]"
  measured-number: 0.524

###

- target-of-assay: EPHB2 (UniProt P29323)
- Sequence (P29323 whole entry, looked up): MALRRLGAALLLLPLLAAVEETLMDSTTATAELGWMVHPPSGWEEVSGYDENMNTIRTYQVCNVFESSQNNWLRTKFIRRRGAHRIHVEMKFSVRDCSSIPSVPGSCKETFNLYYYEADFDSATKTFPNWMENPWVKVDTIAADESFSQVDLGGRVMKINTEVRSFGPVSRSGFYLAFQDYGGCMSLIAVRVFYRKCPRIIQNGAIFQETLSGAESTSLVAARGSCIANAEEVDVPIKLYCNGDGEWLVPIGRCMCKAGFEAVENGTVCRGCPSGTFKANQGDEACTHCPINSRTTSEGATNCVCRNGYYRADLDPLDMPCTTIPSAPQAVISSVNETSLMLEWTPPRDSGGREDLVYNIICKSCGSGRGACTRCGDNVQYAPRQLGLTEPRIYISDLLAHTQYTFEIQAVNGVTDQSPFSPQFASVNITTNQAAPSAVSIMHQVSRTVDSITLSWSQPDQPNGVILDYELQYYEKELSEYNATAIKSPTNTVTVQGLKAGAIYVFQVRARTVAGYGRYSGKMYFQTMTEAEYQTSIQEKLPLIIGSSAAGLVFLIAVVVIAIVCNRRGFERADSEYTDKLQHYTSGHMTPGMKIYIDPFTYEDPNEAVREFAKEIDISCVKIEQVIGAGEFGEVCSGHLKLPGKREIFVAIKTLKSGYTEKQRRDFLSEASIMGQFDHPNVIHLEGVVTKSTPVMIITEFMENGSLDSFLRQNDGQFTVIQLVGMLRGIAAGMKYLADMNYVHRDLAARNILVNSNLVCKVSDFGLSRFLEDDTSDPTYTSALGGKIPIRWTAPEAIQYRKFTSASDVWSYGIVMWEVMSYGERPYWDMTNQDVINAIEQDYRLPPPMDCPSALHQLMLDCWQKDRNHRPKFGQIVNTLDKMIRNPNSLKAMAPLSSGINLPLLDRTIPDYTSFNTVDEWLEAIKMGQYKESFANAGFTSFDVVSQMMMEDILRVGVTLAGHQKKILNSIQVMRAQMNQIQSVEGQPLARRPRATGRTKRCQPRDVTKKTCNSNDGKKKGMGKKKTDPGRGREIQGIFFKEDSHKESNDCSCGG
- test-details: phosphorylation enrichment, bacterial display (enrichment ratio); higher = better substrate or ligand; peptides without Tyr show the background
Each entry gets n if its phosphorylation enrichment stays under 0.6, and y if its phosphorylation enrichment is 0.6 or above.

- seq: "DTERIYDDDFF [UBA1_Y560]"
  class: "y"
- seq: "AVLSLYASDRT [ACTA1_Y145_G148D]"
  class: "y"
- seq: "RAIGYYSATSK [FAM120A_Y328]"
  class: "n"
- seq: "SSMSDYNPLEK [MYOC_Y479_I477S]"
  class: "n"
- seq: "EPAVLYNLKDR [MYH7_Y103]"
  class: "n"
- seq: "YGMQLYQKYMH [GRB14_Y347_N349K]"
  class: "y"
- seq: "ERLLDYTRTVQ [INPP5E_Y439]"
  class: "n"
- seq: "FKEVVYQAMEE [TACC3_Y684_E680K]"
  class: "y"
- seq: "IFHENYNAGTF [CFI_Y421_YF]"
  class: "n"
- seq: "SDVCMYRKNIF [SYNE2_Y570_YF]"
  class: "n"
- seq: "QCQLKYSETPF [SIX6OS1_Y129_Y125C]"
  class: "y"
- seq: "FMCKVYSDPQP [FGFR1_Y280]"
  class: "y"
- seq: "PVGVLYEVKVY [PTS_Y128_K129E]"
  class: "n"
- seq: "IDPFTYTPFGS [CYP3A4_Y432_I431T_YF]"
  class: "y"
- seq: "SVSNNYIQTLG [CTNND1_Y174]"
  class: "n"
- seq: "KDPPDYKYQPR [SOX9_Y172_H169P]"
  class: "n"
- seq: "PIYLYYLMDLS [ITGB2_Y131_D128Y]"
  class: "y"
- seq: "NFRPGYNNFFN [USH2A_Y467_YF]"
  class: "n"
- seq: "FGMSTYITRED [FNDC3B_Y180_YF]"
  class: "n"
- seq: "VPLLEYYWDIF [CDAN1_Y712_R714W]"
  class: "y"
- seq: "RPFFLYVAFHN [SGSH_Y174_D179N]"
  class: "n"
- seq: "VHNLDYFKKTT [FGFR3_Y647_YF]"
  class: "n"
- seq: "IPTPAYQSLPA [PDCD6IP_Y727_S730L]"
  class: "n"
- seq: "KIKGRYEKCEP [KRT26_Y119_W118R]"
  class: "n"
- seq: "KPVDTYFDSTR [DYNC2H1_Y2230_M2227V_YF]"
  class: "n"
- seq: "NTQRPHYKGGG [TYROBP_Y111_Y111H]"
  class: "n"
- seq: "PGQAAYQKVVA [HBB_Y131_V127G]"
  class: "n"
- seq: "RHLREYQDLLN [DES_Y388]"
  class: "y"

###

- target-of-assay: Fyn (UniProt P06241)
- Sequence (P06241 whole entry, looked up): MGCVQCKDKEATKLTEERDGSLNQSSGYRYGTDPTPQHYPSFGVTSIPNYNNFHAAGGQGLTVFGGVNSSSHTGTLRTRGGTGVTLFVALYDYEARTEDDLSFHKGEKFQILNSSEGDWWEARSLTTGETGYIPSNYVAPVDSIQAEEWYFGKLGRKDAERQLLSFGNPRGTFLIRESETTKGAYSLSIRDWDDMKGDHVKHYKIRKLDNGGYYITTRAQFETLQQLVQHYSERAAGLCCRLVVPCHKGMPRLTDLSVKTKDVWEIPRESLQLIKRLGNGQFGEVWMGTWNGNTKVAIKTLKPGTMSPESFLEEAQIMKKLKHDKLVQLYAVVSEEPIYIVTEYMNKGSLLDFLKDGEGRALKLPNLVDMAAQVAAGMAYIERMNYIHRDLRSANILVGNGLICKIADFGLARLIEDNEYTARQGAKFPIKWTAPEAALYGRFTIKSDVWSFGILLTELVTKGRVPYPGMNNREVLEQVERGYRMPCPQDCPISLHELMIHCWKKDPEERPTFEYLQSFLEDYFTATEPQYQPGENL
- test-details: phosphorylation enrichment, bacterial display (enrichment ratio); higher = better substrate or ligand; peptides without Tyr show the background

- seq: "EEVGIYRMSGV [BCR_Y1089_V1091M]"
  phosphorylation enrichment: 6.38
- seq: "MKSIKYMDKEI [CCDC60_Y41]"
  phosphorylation enrichment: 0.375
- seq: "QTPVLYAMLYH [MPZ_Y220_D224Y]"
  phosphorylation enrichment: 4.4
- seq: "SASRSYSRSRS [SRRM4_Y549]"
  phosphorylation enrichment: 0.518
- seq: "EPVSDYINANV [PTPN11_Y304_I309V]"
  phosphorylation enrichment: 0.393
- seq: "VHFLVYHHHHH [CACNA1H_Y519_H516Y_YF]"
  phosphorylation enrichment: 0.527
- seq: "YQQLFYLLQIN [IQGAP2_Y890_T894I]"
  phosphorylation enrichment: 0.625
- seq: "KWTVDYLSQVG [TYW5_Y48]"
  phosphorylation enrichment: 0.443
- seq: "FRNSLYAPDYS [FAM92A_Y226]"
  phosphorylation enrichment: 0.734
- seq: "RIFDYYSARKA [STOX1_Y858]"
  phosphorylation enrichment: 0.713
- seq: "RIAFQYGVTDL [MYBPC3_Y340]"
  phosphorylation enrichment: 0.522
- seq: "MANYMYKAGPS [MAML2_Y515]"
  phosphorylation enrichment: 0.508
- seq: "PKGTGYIKTEL [STAT1_Y701]"
  phosphorylation enrichment: 0.512
- seq: "IKSSIYDNRKE [ARAP2_Y380]"
  phosphorylation enrichment: 0.366

Every entry's value here was drawn from the supplement of paper PMC10065799.
